target: PDK1 (Homo sapiens, UniProt O15530)
Sequence (O15530 whole entry): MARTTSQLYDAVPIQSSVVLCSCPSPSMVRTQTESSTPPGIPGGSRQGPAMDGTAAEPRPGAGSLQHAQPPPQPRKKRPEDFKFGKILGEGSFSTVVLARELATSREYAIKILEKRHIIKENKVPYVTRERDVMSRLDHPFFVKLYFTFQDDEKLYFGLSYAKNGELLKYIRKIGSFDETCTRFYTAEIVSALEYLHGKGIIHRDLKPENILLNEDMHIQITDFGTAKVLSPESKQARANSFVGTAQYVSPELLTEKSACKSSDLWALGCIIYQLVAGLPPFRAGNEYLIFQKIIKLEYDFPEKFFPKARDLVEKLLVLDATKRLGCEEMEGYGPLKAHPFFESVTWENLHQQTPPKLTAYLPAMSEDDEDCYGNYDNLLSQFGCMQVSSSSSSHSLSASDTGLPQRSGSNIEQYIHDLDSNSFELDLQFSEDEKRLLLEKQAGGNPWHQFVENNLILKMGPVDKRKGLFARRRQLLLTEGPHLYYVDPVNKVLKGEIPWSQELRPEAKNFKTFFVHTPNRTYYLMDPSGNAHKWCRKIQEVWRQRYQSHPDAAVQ
assayNotes: Thermo Fisher "PDK1 Direct" assay (peptide Ser/Thr 07, FRET readout)
Format: biochemical
conditionInfo: 1 μM, single point, N=2; read-out: Inhibition at 1 μM (%)

compound	inhibition at 1 µM (%)
CCCC(=O)O[C@H]1[C@@H](OP(=O)(O)O)[C@H](OP(=O)(O)O)[C@@H](OP(=O)(O)O)[C@H](OP(=O)(O)O)[C@H]1OP(=O)(O)O	100
CCCCO[C@H]1[C@@H](OP(=O)(O)O)[C@H](OP(=O)(O)O)[C@@H](OP(=O)(O)O)[C@H](OP(=O)(O)O)[C@H]1OP(=O)(O)O	100
O=P(O)(O)O[C@H]1[C@H](OP(=O)(O)O)[C@@H](OP(=O)(O)O)[C@H](OP(=O)(O)O)[C@@H](OP(=O)(O)O)[C@H]1OP(=O)(O)O [IP6, inositol hexakisphosphate, reference compound]	8
